targetEntity: NAMPT (Homo sapiens (Human))
Sequence (P43490 whole entry): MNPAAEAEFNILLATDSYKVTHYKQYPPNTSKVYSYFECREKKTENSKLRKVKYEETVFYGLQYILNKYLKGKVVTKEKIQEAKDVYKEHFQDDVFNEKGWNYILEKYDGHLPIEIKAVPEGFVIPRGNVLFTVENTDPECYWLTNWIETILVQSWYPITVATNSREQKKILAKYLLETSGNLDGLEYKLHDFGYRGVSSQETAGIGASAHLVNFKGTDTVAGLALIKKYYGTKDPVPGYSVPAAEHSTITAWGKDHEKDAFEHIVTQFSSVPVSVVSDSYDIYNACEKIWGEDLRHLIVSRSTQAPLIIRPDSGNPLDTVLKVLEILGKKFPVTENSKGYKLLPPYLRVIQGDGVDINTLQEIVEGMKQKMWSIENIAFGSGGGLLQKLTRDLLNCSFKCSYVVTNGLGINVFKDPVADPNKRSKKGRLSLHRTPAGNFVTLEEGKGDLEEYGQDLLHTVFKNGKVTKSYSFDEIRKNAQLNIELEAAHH
procedureText: NAMPT biochemical inhibition assay (NMN quantified by mass spectrometry)
setupConditions: NAMPT biochemical inhibition; read-out: Biochem IC50
readoutKind: pIC50
Scale note: pIC50 = -log10(concentration in M).

- compound: "Cc1cccc(NS(=O)(=O)c2ccc(NC(=O)NCc3cccnc3)cc2)c1"
  measured: 8.00
- compound: "COc1ccc(S(=O)(=O)c2ccc(NC(=O)NCc3cccnc3)cc2)cc1OC"
  measured: 8.30
- compound: "CCc1cccc(S(=O)(=O)c2ccc(NC(=O)NCc3cccnc3)cc2)c1"
  measured: 8.70
- compound: "O=C(NCc1cccnc1)Nc1ccc(S(=O)(=O)N2CCN(C(=O)Cc3ccccc3)CC2)cc1"
  measured: 8.52
- compound: "O=C(NCc1cccnc1)Nc1ccc(S(=O)(=O)c2cc(F)ccc2F)cc1"
  measured: 8.40

Kindly note the recorded pIC50 for CN(C)S(=O)(=O)c1cccc(S(=O)(=O)c2ccc(NC(=O)NCc3cccnc3)cc2)c1 , which is 8.48

Kindly note the recorded pIC50 for O=C(NCc1cccnc1)Nc1ccc(S(=O)(=O)Nc2cc(C(F)(F)F)ccc2N2CCOCC2)cc1 , which is 8.10

Kindly note the recorded pIC50 for O=C(NCc1cccnc1)Nc1ccc(S(=O)(=O)c2ccc(F)c(F)c2)cc1 , which is 8.52

Kindly note the recorded pIC50 for CCN(CC)C(=O)c1ccccc1NS(=O)(=O)c1ccc(NC(=O)NCc2cccnc2)cc1 , which is 8.10

Kindly note the recorded pIC50 for O=C(NCc1ccc2nccn2c1)Nc1ccc(S(=O)(=O)N2CCC(N3CCOCC3)CC2)cc1 , which is 8.40

Kindly note the recorded pIC50 for Cc1cc(C)cc(S(=O)(=O)c2ccc(NC(=O)NCc3cccnc3)cc2)c1 , which is 9.00

Kindly note the recorded pIC50 for O=C(NCc1cccnc1)Nc1ccc(S(=O)(=O)N2CCCC(CN3CCCC3=O)C2)cc1 (stereo not drawn) , which is 8.52

---

targetEntity: NAMPT (Homo sapiens (Human))
procedureText: NAMPT biochemical inhibition assay (NMN quantified by mass spectrometry)
setupConditions: NAMPT biochemical inhibition; read-out: Biochem IC50
pIC50: −log10 of the molar value.
Each entry gets false (0) if its pIC50 stays under 8, and true (1) if its pIC50 is 8 or above.

Some solved cases for reference:
- querySmiles: "CC(=O)c1cccc(S(=O)(=O)c2ccc(NC(=O)NCc3cccnc3)cc2)c1"
  targetEntity: "NAMPT (Homo sapiens (Human))"
  class: "true (1)"
- querySmiles: "Cc1ccc(S(=O)(=O)c2ccc(NC(=O)NCc3cccnc3)cc2)c(C)c1"
  targetEntity: "NAMPT (Homo sapiens (Human))"
  class: "false (0)"
- querySmiles: "O=C(NCc1cccnc1)Nc1ccc(S(=O)(=O)c2ccc(OCC(F)(F)F)c(F)c2)cc1"
  targetEntity: "NAMPT (Homo sapiens (Human))"
  class: "true (1)"
- querySmiles: "O=C(NCc1cccnc1)Nc1ccc(S(=O)(=O)c2ccc(OC(F)(F)F)c(F)c2)cc1"
  targetEntity: "NAMPT (Homo sapiens (Human))"
  class: "true (1)"
- querySmiles: "O=C(NCc1cccnc1)Nc1ccc(S(=O)(=O)c2cc(F)cc(C(F)(F)F)c2)cc1"
  targetEntity: "NAMPT (Homo sapiens (Human))"
  class: "true (1)"
- querySmiles: "O=C(NCc1cccnc1)c1ccc(S(=O)(=O)c2ccccc2)cc1"
  targetEntity: "NAMPT (Homo sapiens (Human))"
  class: "false (0)"

[in] Item COc1cccc(S(=O)(=O)c2ccc(NC(=O)NCc3cccnc3)cc2)c1F with pIC50 of 8 or above?
[out] true (1)
